Reference for the values: PubChem BioAssay (NCI)

ASSAY DETAILS: NCI Yeast Anticancer Drug Screen. Data for the bub3 strain (AID 167)
STATED CONDITIONS: S. cerevisiae bub3 mutant strain, at 33.0 µM
Compounds without any hit were thinned out: in the full panel of roughly 79,000, 15% have a hit. Calls of active or inactive are those of the source. Cut-off read from the data, not from the text of the source: active = growth inhibition above about 70%; inactive = the rest.
Response enum: active, inactive

Asked: For C=C(C)[C@@H]1CCc2c(O)c(O)c(=O)cc(C)c2C1 , what call appears in the results of this test?
Given back: active

Asked: Write down the call the test reported for this compound. Item: CCOC(=O)C1=C(C)NC(C)=C(C(=O)OCC)C1c1ccc(C)cc1
Given back: active

Asked: Dear all, I need the recorded test outcome for OB(O)c1ccccc1C#Cc1ccccc1B(O)O , thank you.
Given back: inactive

Asked: Test call, this compound: Nc1cc(F)cc2c1-c1ccc(F)cc1C2
Given back: inactive

Asked: Which result was noted for this compound in the test: NC(=O)N1c2ccccc2C=Cc2ccccc21
Given back: inactive

Asked: Short answer needed: outcome of this test for COc1ccc(N=Nc2ccc3oc(=O)c(C(=O)Nc4ccccc4)cc3c2)cc1 ?
Given back: active

###

Would you mind telling me the reported growth inhibition of each entry?
ASSAY DETAILS: NCI Yeast Anticancer Drug Screen. Data for the mec2-1 strain (AID 157)
STATED CONDITIONS: S. cerevisiae mec2-1 strain, at 3.7 µM, hits give high values
This is part of a sample that, as a whole, favours compounds with a hit. Of some 79,000 tested, about 15% had one in any assay.
Your answer is read as %, so omit the unit and give the number.

Asked: growth inhibition lookup needed for O=Nn1c2ccccc2c2ccccc21 , thanks.
Given back: 2

Asked: # input molecule: C=C(C)[C@@H]1CCc2c(O)c(O)c(=O)cc(C)c2C1 ; wanted: its growth inhibition
Given back: 22

Asked: Could you tell me which growth inhibition is on file for CCOC(=O)C1=C(C)NC(C)=C(C(=O)OCC)C1c1ccccc1Cl ?
Given back: -2

Asked: Item Cc1cc(Cl)nc2nc(Cl)c(N)cc12 has what recorded growth inhibition?
Given back: -17

Asked: Dear colleague, I am looking for the recorded growth inhibition of the following molecule: Nc1nc2c(c(=O)[nH]1)NC(CCNc1ccc(C(=O)O)cc1)CN2 (stereo unspecified)
Given back: 2

Asked: Which measured growth inhibition value corresponds to Cc1cccc(/C=N\NC(=S)N2CCCCC2)n1 ?
Given back: 93

Asked: Could you tell me which growth inhibition is on file for C/C=C/[P+](c1ccccc1)(c1ccccc1)c1ccccc1 ?
Given back: 44

Asked: Given CCOC(=O)Nc1ccc2c(c1)Cc1ccccc1-2 , state its recorded growth inhibition.
Given back: -4

Asked: Can you look up the measured growth inhibition of CCCc1[nH]nc(C(N)=O)c1N=NN(C)C for me?
Given back: -1

Asked: Quick check: growth inhibition of CN(C)CCNc1cccc2sc3ccc(O)cc3c(=O)c12 ?
Given back: 5

Asked: For the molecule shown here, CCOC(=O)C1=C(C)NC(C)=C(C(=O)OCC)C1c1ccc(C)cc1 , give the reported growth inhibition.
Given back: -6

Asked: Quick one: growth inhibition for CCCCCCCCCCCCCCCCCCNC(=S)/N=C\C1=C(O)c2ccccc2C1=O ?
Given back: -1

Asked: For the molecule CC(=O)Oc1ccc(C(=O)c2ccccc2)c(O)c1 , what growth inhibition is on record?
Given back: -5

Asked: Query (molecule): CN(Cc1cnc2nc(N)nc(N)c2n1)c1ccc(C(=O)NC(CCC(=O)O)C(=O)O)c2ccccc12 (stereo unspecified) ; field requested: growth inhibition
Given back: 72

Asked: Can you share its growth inhibition? I mean this molecule: CN(C)CCN1C(=O)c2cccc3cc([N+](=O)[O-])cc(c23)C1=O
Given back: 2

Asked: Entry under review: NC(=O)N1c2ccccc2C=Cc2ccccc21 . Reported growth inhibition?
Given back: -55

Asked: I am curious: what growth inhibition value has been reported for CCN(CC)CC(O)c1cc(-c2ccc(Cl)cc2)nc2c(-c3ccccc3)cccc12 (stereo unspecified) ?
Given back: -3

Asked: Could you tell me which growth inhibition is on file for Nc1nc(N)c2c(n1)CCC(S(=O)(=O)c1ccc3ccccc3c1)C2 (stereo unspecified) ?
Given back: 46

Asked: Can you share its growth inhibition? I mean this molecule: CC(=O)c1cc2c(Cl)cc(Cl)cc2oc1=O
Given back: 0

Asked: For O=C1CC(=O)N(C2CCCCC2)C(=O)N1c1ccccc1S(=O)(=O)Oc1ccccc1 , what is its reported growth inhibition?
Given back: 0

Asked: Name the reported growth inhibition value associated with the molecule [N-]=[N+]=NC(c1ccccc1)(c1ccccc1)c1ccccc1
Given back: 11

Asked: growth inhibition for BrCc1ccccc1C(c1ccccc1)c1ccccc1 ?
Given back: 42

Asked: Report growth inhibition for O=C(/C=C/c1cccc2ccccc12)c1ccc(Cl)cc1 please.
Given back: 14

Asked: If you can, please state the reported growth inhibition value of CCc1nc(N)nc(N)c1-c1ccc(NCCCCCCN)c([N+](=O)[O-])c1 .
Given back: -4

Asked: If you can, please state the reported growth inhibition value of Nc1ccc(CCl)cc1Cc1c(O)ccc2ccccc12 .
Given back: 0

Asked: Give the measured growth inhibition of CN(C)c1ccc(N=Nc2ccccn2)cc1 .
Given back: 20

Asked: I am curious: what growth inhibition value has been reported for COc1ccc(N=Nc2ccc3oc(=O)c(C(=O)Nc4ccccc4)cc3c2)cc1 ?
Given back: 12

Asked: // returns reported growth inhibition for input N#C/C(=C/N1C(=O)/C(=C/c2ccc([N+](=O)[O-])cc2)SC1=S)c1nc2ccccc2s1
Given back: 11

Asked: Query (molecule): CCCCCCCCCCCCCC(=O)OC(C)CCC1CCCO1 (stereo unspecified) ; field requested: growth inhibition
Given back: -1

Asked: Query: growth inhibition; subject: NC(N)=N/N=C/c1cc(Cl)cc(Cl)c1O
Given back: -18

Asked: Reported growth inhibition for O=C(/C=N/O)Nc1cc(Cl)c(Cl)cc1Cl : what is it?
Given back: -22

Asked: // returns reported growth inhibition for input O=S(=O)(N/N=C/c1cccc(Cl)c1)c1ccccc1
Given back: 4

Asked: Return reported growth inhibition; argument: CC[C@@]1(OC(=O)CCC(=O)O)C(=O)OCc2c1cc1n(c2=O)Cc2cc3ccccc3nc2-1
Given back: 6

Asked: Could you tell me which growth inhibition is on file for C=C1N(C)c2ccc(Cl)cc2C1(C)C ?
Given back: 4

Asked: So what does the record say about growth inhibition for O=C(O)c1[nH]c(=O)c2ccccc2c1Nc1ccccc1 ?
Given back: -3

Asked: Which measured growth inhibition value corresponds to c1ccc2c(c1)Cn1c-2nc2ccccc21 ?
Given back: 7

Asked: Reported growth inhibition for CC1(C)C(C=O)=CCC1CC(N)=O (stereo unspecified) : what is it?
Given back: 2

Asked: Look at this molecule and give its reported growth inhibition. O=[N+]([O-])c1c(/C=N/Nc2ccccc2)oc(-c2ccc3c(c2)OCO3)c1-c1ccc2c(c1)OCO2
Given back: 0

Asked: Fill in the blank: the reported growth inhibition of CCNc1ccc2c(c1)C(=O)N(OS(C)(=O)=O)C2=O is ____.
Given back: 10

Asked: Requested field: growth inhibition. Item: S=c1[nH]c2c(Cl)c(Cl)c(Cl)c(Cl)c2[nH]1
Given back: -11

Asked: Recorded growth inhibition for S=c1nc(Cl)cc2[nH]c(Cl)cn12 , please?
Given back: 4

Asked: Could you share which growth inhibition value was measured for COc1cc(/C=C/c2sc3ccccc3[n+]2C)ccc1N(C)C ?
Given back: 0

Asked: Bench note: what growth inhibition did CCOC(=O)c1csc(Br)n1 show?
Given back: -2

Asked: // lookup growth inhibition for Cc1ccc(S(=O)(=O)N(C)c2ccc(Cl)cc2C2=NCCc3ccccc32)cc1
Given back: -26

Asked: Look at this molecule and give its reported growth inhibition. C/C(=N\NC(=S)NNC(=S)N(C)c1ccccc1)c1ccccn1
Given back: 25

Asked: Need growth inhibition, item CC(=O)O[C@H]1C(=O)[C@@]2(C)[C@H]([C@H](OC(=O)c3ccccc3)[C@]3(O)C[C@H](OC(=O)[C@H](O)[C@@H](NC(=O)c4ccccc4)c4ccccc4)C(C)=C1C3(C)C)[C@]1(OC(C)=O)CO[C@@H]1C[C@@H]2O
Given back: -2

###

ASSAY DETAILS: NCI Yeast Anticancer Drug Screen. Data for the mec2-1 strain (AID 157)
STATED CONDITIONS: S. cerevisiae mec2-1 strain, at 11.0 µM, hits give high values
The panel holds about 79,000 compounds, 15% with a hit somewhere; the sample as a whole holds those more often.
Everything with growth inhibition lower than 10% is 0; everything else, including exactly 10%, is 1.

Asked: Does the molecule CCOC(=O)Nc1ccc2c(c1)Cc1ccccc1-2 have recorded growth inhibition that is 10% or more?
Given back: 0

Asked: Given Cc1ccccc1NC(=O)Cc1csc(N/N=C2\NC(=O)/C(=C/c3cccc([N+](=O)[O-])c3)S2)n1 , state whether its growth inhibition is at least 10%.
Given back: 0

Asked: Could you tell me if the measured growth inhibition of O=S(=O)(N/N=C/c1cccc(Cl)c1)c1ccccc1 reaches 10% or more?
Given back: 1

Asked: Form field: growth inhibition at least 10%? Entry: On1cnc(=S)c2[nH]cnc21
Given back: 1

Asked: Hi team, for O=C(Nc1cccc(C(F)(F)F)c1)Oc1ccc(Cl)cc1C(=O)c1ccccc1 , is the recorded growth inhibition at or above 10%?
Given back: 1

Asked: # bool: growth inhibition of S=P(N1CC1)(N1CC1)N1CC1 >= 10%
Given back: 0
